B1: C20orf112 (parent)
chain: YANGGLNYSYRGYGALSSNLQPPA

Variants of: B1
Assay: protein stability index of a GFP-peptide fusion (GPS, HEK-293T) (PSI 1-6); higher = more stable;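 note: lentivirally expressed fusions sorted by FACS into six bins by GFP to DsRed ratio, PSI derived from sequencing read proportions per bin multiplied by bin number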
Conditions: c terminus: a fixed tail appended
protein stability index reference
API doc: respond with a numeric literal and nothing else, no unit.

Illustrative cases are given below, each with its answer.
QUERY: Hello, please tell me recorded protein stability index for this one: `A15N`
RESULT: 2.4

QUERY: Please give the documented protein stability index of `G5S`
RESULT: 1.65

QUERY: Give protein stability index for `A2G`
RESULT: 1.95

QUERY: State its protein stability index: `A2C`
RESULT: 1.87

Now consider the entry below.
QUERY: Consider the variant `A24L` . State its measured protein stability index.
RESULT: 1.62
